- Tgt: mouse MOR (Mus musculus)
- Sequence (P42866 whole entry): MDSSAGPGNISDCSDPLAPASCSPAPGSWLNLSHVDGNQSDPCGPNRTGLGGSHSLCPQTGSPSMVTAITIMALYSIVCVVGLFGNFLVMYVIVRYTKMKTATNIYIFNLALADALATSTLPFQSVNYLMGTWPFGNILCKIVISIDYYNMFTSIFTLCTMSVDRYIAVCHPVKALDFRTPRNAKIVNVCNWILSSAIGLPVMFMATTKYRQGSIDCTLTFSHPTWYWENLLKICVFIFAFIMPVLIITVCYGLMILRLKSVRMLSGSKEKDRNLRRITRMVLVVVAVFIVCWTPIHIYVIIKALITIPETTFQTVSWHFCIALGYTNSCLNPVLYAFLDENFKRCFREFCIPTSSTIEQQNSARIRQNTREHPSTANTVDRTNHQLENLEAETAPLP
- Protocol Notes: [35S]-GTPγS functional assay, MOR-CHO membranes
- Conditions Used: relative to 3 μM DAMGO

Smiles Notation: O=C(N[C@@H]1CC[C@@]2(O)[C@H]3Cc4ccc(O)c5c4[C@@]2(CCN3CC2CC2)[C@H]1O5)c1cccc2cc[nH]c12
Tgt: mouse MOR (Mus musculus)
MOR [35S]-GTPγS assay % Emax of DAMGO: 37.94 ±5.85%
//
Smiles Notation: O=C(CCCc1c[nH]c2ccccc12)N[C@@H]1CC[C@@]2(O)[C@H]3Cc4ccc(O)c5c4[C@@]2(CCN3CC2CC2)[C@H]1O5
Tgt: mouse MOR (Mus musculus)
MOR [35S]-GTPγS assay % Emax of DAMGO: 36.29 ±4.11%

---

What follows is a record of Ki for mouse MOR (Mus musculus, UniProt P42866).

Smiles Notation: O=C(CCCc1c[nH]c2ccccc12)N[C@H]1CC[C@@]2(O)[C@H]3Cc4ccc(O)c5c4[C@@]2(CCN3CC2CC2)[C@H]1O5
Ki [nM]: 0.29
--
Smiles Notation: O=C(CCc1c[nH]c2ccccc12)N[C@H]1CC[C@@]2(O)[C@H]3Cc4ccc(O)c5c4[C@@]2(CCN3CC2CC2)[C@H]1O5
Ki [nM]: 0.44
--
Smiles Notation: O=C(CCCc1c[nH]c2ccccc12)N[C@@H]1CC[C@@]2(O)[C@H]3Cc4ccc(O)c5c4[C@@]2(CCN3CC2CC2)[C@H]1O5
Ki [nM]: 0.2
--
Smiles Notation: O=C(N[C@H]1CC[C@@]2(O)[C@H]3Cc4ccc(O)c5c4[C@@]2(CCN3CC2CC2)[C@H]1O5)c1ccc2[nH]ccc2c1
Ki [nM]: 0.76
--
Smiles Notation: O=C(Cc1c[nH]c2ccccc12)N[C@H]1CC[C@@]2(O)[C@H]3Cc4ccc(O)c5c4[C@@]2(CCN3CC2CC2)[C@H]1O5
Ki [nM]: 0.84
--
Smiles Notation: O=C(N[C@H]1CC[C@@]2(O)[C@H]3Cc4ccc(O)c5c4[C@@]2(CCN3CC2CC2)[C@H]1O5)c1cc2ccccc2[nH]1
Ki [nM]: 0.36
--
Smiles Notation: O=C(N[C@@H]1CC[C@@]2(O)[C@H]3Cc4ccc(O)c5c4[C@@]2(CCN3CC2CC2)[C@H]1O5)c1ccc2[nH]ccc2c1
Ki [nM]: 0.26
--
Smiles Notation: O=C(N[C@H]1CC[C@@]2(O)[C@H]3Cc4ccc(O)c5c4[C@@]2(CCN3CC2CC2)[C@H]1O5)c1c[nH]c2ccccc12
Ki [nM]: 0.29
--
Smiles Notation: O=C(N[C@@H]1CC[C@@]2(O)[C@H]3Cc4ccc(O)c5c4[C@@]2(CCN3CC2CC2)[C@H]1O5)c1cc2ccccc2[nH]1
Ki [nM]: 0.29
--
Smiles Notation: O=C(N[C@H]1CC[C@@]2(O)[C@H]3Cc4ccc(O)c5c4[C@@]2(CCN3CC2CC2)[C@H]1O5)c1ccc2cc[nH]c2c1
Ki [nM]: 0.43
--
Smiles Notation: O=C(N[C@@H]1CC[C@@]2(O)[C@H]3Cc4ccc(O)c5c4[C@@]2(CCN3CC2CC2)[C@H]1O5)c1ccc2cc[nH]c2c1
Ki [nM]: 0.25
--
Smiles Notation: O=C(N[C@H]1CC[C@@]2(O)[C@H]3Cc4ccc(O)c5c4[C@@]2(CCN3CC2CC2)[C@H]1O5)c1cccc2[nH]ccc12
Ki [nM]: 0.26
--
Smiles Notation: O=C(N[C@@H]1CC[C@@]2(O)[C@H]3Cc4ccc(O)c5c4[C@@]2(CCN3CC2CC2)[C@H]1O5)c1cccc2[nH]ccc12
Ki [nM]: 0.24
